Test system: DMS 273 small cell lung
assay protocol: NCI tumour cell line growth inhibition, 48 h
metric name: TGI

stdin: Look up and report measured TGI for this entry: CC(=O)Nc1ccc(C2=N/C(=C\c3ccc(Cl)c(Cl)c3)C(=O)O2)cc1
stdout: > 100 µM

stdin: Name the recorded TGI of the compound listed here: O=c1cc2n(c(=O)[nH]1)C1OC(C(O)C1O)[C@H]2CCO (stereo partly drawn)
stdout: > 100 µM

stdin: Determine its reported TGI: COc1ccc(CN2C(=O)C(Cc3cc(OC)c(OC)c(C)c3OC)N(C(=O)OC(C)C)C(=O)/C2=C/c2cc(OC)c(OC)c(C)c2OC)cc1 (stereo not drawn)
stdout: > 100 µM

stdin: Return the recorded TGI value; entry: Cn1c(=O)nc2n(-c3ccc(F)cc3)c3ccccc3nc-2c1=O
stdout: 36 µM

stdin: Identify the reported TGI for the following entry. O=C1NC2OCC(O)C(O1)C2O (stereo not drawn)
stdout: > 100 µM

stdin: Output TGI of C[N+](C)(C)CCC(=O)N1C/C(=C\c2ccccc2)C(=O)/C(=C/c2ccccc2)C1
stdout: 5.33 µM

stdin: Please give measured TGI of the following entry: COC(=O)NNc1c([N+](=O)[O-])cnn(-c2ccccc2)c1=O
stdout: 4 µM

stdin: Hello, please tell me recorded TGI for this one: COc1ccc(NC(=O)CC/C(CC(=O)c2ccccc2Cl)=N\Nc2nnc(C)n2N)cc1
stdout: > 100 µM

stdin: Supply reported TGI belonging to this compound: Nc1ccc2cc(S(=O)(=O)O)cc(O)c2c1N=Nc1ccc(NC(=O)Nc2ccc(N=Nc3c(N)ccc4cc(S(=O)(=O)O)cc(O)c34)c(S(=O)(=O)O)c2)cc1S(=O)(=O)O
stdout: > 100 µM

stdin: Give recorded TGI. Cc1cc2cc(Cl)ccc2nc1C(=O)c1ccccc1
stdout: > 100 µM

stdin: State its TGI: Cc1ccc(S(=O)(=O)c2c(N)c3nccn3c3nc4ccccc4nc23)cc1
stdout: > 100 µM

stdin: Dear colleague, please send me the reported TGI for Cc1ccccc1N=Cc1ccc(N(CCC#N)S(=O)(=O)c2ccccc2)cc1 when you can.
stdout: > 100 µM

stdin: Indicate its recorded TGI; the compound in question is COC(=O)CCC(=O)CC(=O)C(=O)Nc1ccc(F)cc1
stdout: > 100 µM

The measurements presented in this section are drawn from PubChem BioAssay (NCI).
